- measurement protocol: Plasma pharmacokinetics of SHR9146 in mice (LC-MS/MS, non-compartmental analysis)
- Format: in vivo, ICR mice
- conditions used: both sexes, ICR, mouse, plasma, po, 20 mg/kg, 20 mg/kg i.g. single dose; all mice (Totol, 3 male + 3 female); plasma
measurement label: AUC(0-inf) (ng·h/mL)
Field format: number, assumed ng·h/mL, no unit text.

Summary for this molecule, OCCn1cc(-c2ccc(N3CCC([C@H]4c5c(F)cccc5-c5cncn54)CC3)cc2)cn1 : AUC(0-inf) is 16300

###

- measurement protocol: Plasma pharmacokinetics of SHR9146 in mice (LC-MS/MS, non-compartmental analysis)
- Assay type: in vivo, ICR mice
- conditions used: male, ICR, mouse, plasma, po, 80 mg/kg, 80 mg/kg i.g. single dose; male mice; plasma; read-out: AUC0-t
measurement label: AUC(0-t) (ng·h/mL)
Field format: number, assumed ng·h/mL, no unit text.

Summary for this compound, OCCn1cc(-c2ccc(N3CCC([C@H]4c5c(F)cccc5-c5cncn54)CC3)cc2)cn1 : AUC(0-t) is 75300
